- systemName: human neurokinin 2 (NK2) receptor (Homo sapiens)
- Construct: expressed in transfected cells; host or cells: CHO (Chinese hamster ovary) cells, membranes
- Sequence (P21452 whole entry): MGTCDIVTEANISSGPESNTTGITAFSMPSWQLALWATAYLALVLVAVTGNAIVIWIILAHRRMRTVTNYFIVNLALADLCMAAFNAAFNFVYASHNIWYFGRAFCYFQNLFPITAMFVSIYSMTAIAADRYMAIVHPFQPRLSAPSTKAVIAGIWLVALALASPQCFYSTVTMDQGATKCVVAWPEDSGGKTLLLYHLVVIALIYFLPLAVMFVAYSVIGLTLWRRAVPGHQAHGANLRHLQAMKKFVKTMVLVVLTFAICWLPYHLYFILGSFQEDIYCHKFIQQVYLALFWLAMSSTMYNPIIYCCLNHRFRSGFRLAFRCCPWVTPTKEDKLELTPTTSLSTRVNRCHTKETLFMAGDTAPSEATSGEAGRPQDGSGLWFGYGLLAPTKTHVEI
- runDescription: Neurokinin receptor binding assay, human NK2
- conditionNotes: CHO cell membranes, [3H]-Neurokinin A, read-out: % Inhibition of NK2 at a dose of 1 μM
# inhibition at 1 µM >= 90% gives yes, anything below gives no

molecule: COC(CN1CCC(O)(c2ccccc2)CC1)C(CNC(=O)OC(C)(C)C)c1ccc(Cl)c(Cl)c1 (centres unmarked)
qualitativeLabel: no
//
molecule: CN(C[C@H](c1ccc(Cl)c(Cl)c1)[C@@H](CN1CCC(O)(c2ccccc2)CC1)OCc1cc(C(F)(F)F)cc(C(F)(F)F)c1)C(=O)c1ccccc1 (relative stereo)
qualitativeLabel: no
//
molecule: CN(CC(C(=O)CN1CCC(O)(c2ccccc2)CC1)c1ccc(Cl)c(Cl)c1)C(=O)c1ccccc1 (centres unmarked)
qualitativeLabel: yes
//
molecule: CON=C(CN1CCC(O)(c2ccccc2)CC1)C(CN(C)C(=O)c1ccccc1)c1ccc(Cl)c(Cl)c1 (centres unmarked)
qualitativeLabel: no

* * *

molecules and their reported inhibition at 1 µM
- systemName: human neurokinin 1 (NK1) receptor (Homo sapiens, UniProt P25103)
- Construct: expressed in transfected cells; host or cells: CHO (Chinese hamster ovary) cells, membranes
- Sequence (P25103 whole entry): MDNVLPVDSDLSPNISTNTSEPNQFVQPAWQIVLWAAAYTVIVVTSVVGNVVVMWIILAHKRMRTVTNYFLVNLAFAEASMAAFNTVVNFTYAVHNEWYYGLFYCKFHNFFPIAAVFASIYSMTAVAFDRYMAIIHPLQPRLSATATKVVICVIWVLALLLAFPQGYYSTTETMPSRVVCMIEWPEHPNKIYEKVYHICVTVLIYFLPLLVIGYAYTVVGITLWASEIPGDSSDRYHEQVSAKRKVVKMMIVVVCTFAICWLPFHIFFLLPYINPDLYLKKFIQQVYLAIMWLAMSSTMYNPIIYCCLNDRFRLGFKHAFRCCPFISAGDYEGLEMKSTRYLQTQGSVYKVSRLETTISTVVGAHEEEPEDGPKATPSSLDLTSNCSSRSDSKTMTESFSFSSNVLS
- runDescription: Neurokinin receptor binding assay, human NK1
- conditionNotes: CHO cell membranes, [3H]-Substance P, read-out: % Inhibition of NK1 at a dose of 1 μM
measuredAttribute: inhibition at 1 µM (%)

molecule: CN(C[C@H](c1ccc(Cl)c(Cl)c1)[C@@H](O)CN1CCC(O)(c2ccccc2)CC1)C(=O)c1ccccc1 (relative stereo) [Example 2]
measuredValue: 81

molecule: CON=C(CN1CCC(O)(c2ccccc2)CC1)C(CN(C)C(=O)c1ccccc1)c1ccc(Cl)c(Cl)c1 (centres unmarked) [Example 18]
measuredValue: 1

molecule: CN(CC(C(=O)CN1CCC(O)(c2ccccc2)CC1)c1ccc(Cl)c(Cl)c1)C(=O)c1ccccc1 (centres unmarked) [Example 16]
measuredValue: 23

molecule: COC(CN1CCC(O)(c2ccccc2)CC1)C(CNC(=O)OC(C)(C)C)c1ccc(Cl)c(Cl)c1 (centres unmarked) [Example 12]
measuredValue: 9

molecule: CN(C[C@H](c1ccc(Cl)c(Cl)c1)[C@@H](CN1CCC(O)(c2ccccc2)CC1)OCc1cc(C(F)(F)F)cc(C(F)(F)F)c1)C(=O)c1ccccc1 (relative stereo) [Example 19]
measuredValue: 78
